System: CP329
Assay: qHTS profiling for inhibitors of Plasmodium falciparum proliferation (AID 504749);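 also: 0% = DMSO vehicle and full inhibition = artemisinin control; nearly all actives have a fitted effect of over 60% in size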
Settings: P. falciparum in erythrocytes, SYBR Green DNA, 72 h; series mostly up to 28.7 µM
Results filed as inconclusive are left out. Active and inactive are the calls of the source. Calls follow the shape of the dose curve; as a rule, active = well fitted inhibition curve with a large enough effect; inconclusive = small, poorly fitted or top-dose-only effect; inactive = flat fitted curve, though single readings scatter. Where a SMILES comes first, the peptide text is derived from it. Bridges are numbered along the chain shown (N, C = ends). [ ]: non-standard residue; d: D form. hArg = N=C(N)NCCCC[C@H](N)C(=O)O; Mpa = O=C(O)CCS
READOUT_LABEL: outcome

# annotated cases, reported outcome shown
molecule=O=C(O)COC(=O)Cc1ccccc1Nc1c(Cl)cccc1Cl subject_of_test=CP329 measured_value=inactive
molecule=N[C@@H](Cc1ccc(O)cc1)C(=O)O subject_of_test=CP329 measured_value=inactive
molecule="NC(=O)[C@@H]1CSSCCC(=O)N[C@@H](CCCCN=C(N)N)C(=O)NCC(=O)N[C@@H](CC(=O)O)C(=O)N[C@@H](Cc2c[nH]c3ccccc23)C(=O)N2CCC[C@H]2C(=O)N1 ([Mpa][hArg]GDWPC-NH2; disulfide 1-7)" subject_of_test=CP329 measured_value=inactive
molecule=O=c1[nH]cnc2nc[nH]c12 subject_of_test=CP329 measured_value=inactive
molecule=Cc1ccsc1C(=CCCN1CCC[C@@H](C(=O)O)C1)c1sccc1C subject_of_test=CP329 measured_value=inactive

Can you look up outcome on CP329 for `CN(C(=O)c1c(O)c2ccccc2n(C)c1=O)c1ccccc1` ? inactive

Item `CC1CCN(CCCC(=O)c2ccc(F)cc2)CC1` with CP329 - outcome? inactive

---

Assay: Drug repurposing screens with cells derived from glioblastoma tumor samples (AID 1345199); also: % is scaled to controls: 0 for no effect and ±100 for the full control effect; nearly all actives have a fitted effect of over 40% in size
Conditions: GBM patient neurospheres viability, ATP luminescence, 48 h; at 45.9 µM (top of the series); tumour line B
Inconclusive results are not listed.
READOUT_LABEL: activity, negative = cell killing (%)
Please reply with the bare figure in % and do not write the unit itself.

Value lookup for activity, negative = cell killing; key = `NC(=O)c1ccc([N+](=O)[O-])cc1Cl` -9.49

Which activity, negative = cell killing value belongs to `CC1CCN(CCCC(=O)c2ccc(F)cc2)CC1` ? -15.8

Name the reported activity, negative = cell killing value associated with the compound `CCN(CC)CCOC(=O)C(c1ccccc1)c1ccccc1` -13.3

Query: activity, negative = cell killing; subject: `NC(=O)NS(=O)(=O)c1ccc(N)cc1` -9.53

I am curious: what activity, negative = cell killing value has been reported for CC1CCc2cc(F)cc3c(=O)c(C(=O)O)cn1c23 (configuration not stated) ? -0.458

Suppose we examine the compound `CCOc1ccc(C(=O)OCCN(CC)CC)cc1` ; what activity, negative = cell killing value has been reported? -7.64

Given the compound `Cc1cc(-n2nc3ccc(Cl)cc3n2)c(O)c(C(C)(C)C)c1` , what is its reported activity, negative = cell killing? -1.32

---

Tested on: N140
Assay: qHTS profiling for inhibitors of Plasmodium falciparum proliferation (AID 504749);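 also: 0% = DMSO vehicle and full inhibition = artemisinin control; nearly all actives have a fitted effect of over 60% in size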
Conditions: P. falciparum in erythrocytes, SYBR Green DNA, 72 h; series mostly up to 28.7 µM
Description: NIH National Institute of Allergy and Infectious Diseases [NIAID] NIH Chemical Genomics Center [NCGC] […] Because mature erythrocytes lack DNA, only Plasmodium-derived DNA is detected. NCGC Assay Protocol Summary: The SYBR Green viability assay was adapted from a method described previously (Plouffe et al., 2008). […] The following morning, fluorescence intensity at 485(14) nm excitation and 535(25) nm emission wavelengths was measured on an EnVision (Perkin Elmer) plate reader. […]
Inconclusive results are not listed. Active and inactive are the calls of the source. The call rests on the fitted dose curve; in most records, active means well fitted inhibition curve with a large enough effect; inconclusive means small, poorly fitted or top-dose-only effect; inactive means flat fitted curve, though single readings scatter.
READOUT_LABEL: outcome

// worked examples, outcome included
compound="CCN(CC)CC1CCCCN1CC(=O)N1c2ccccc2C(=O)Nc2cccnc21 (configuration not stated)" measured_value=inactive
compound=NC(N)=NS(=O)(=O)c1ccc(N)cc1 measured_value=inactive
compound=CC(=O)SC[C@@H](Cc1ccccc1)C(=O)NCC(=O)OCc1ccccc1 measured_value=inactive
compound=CCN(CC)S(=O)(=O)c1ccc(C(=O)O)cc1 measured_value=inactive
compound=C[C@@H](N)C(=O)O measured_value=inactive
compound=C=CCNC(N)=S measured_value=inactive

Can you share its outcome? I mean this compound: `O=C(Cn1ccnc1[N+](=O)[O-])NCc1ccccc1` inactive
